Compiled literature pIC50, tested on PDHK2 (Homo sapiens, UniProt Q15119).
pIC50: −log10 of the molar value.

Recorded pIC50, per entry:
smiles input	pIC50
C[C@H]1CN(C(=O)[C@@](C)(O)C(F)(F)F)CC[C@H]1N(C)C(=O)c1ccc(F)cc1Cl	5.44
C[C@H]1CN(C(=O)[C@@](C)(O)C(F)(F)F)Cc2cnn(-c3ccccc3C#N)c21	5.52 to 6.52
C[C@@H]1CN(C(=O)[C@@](C)(O)C(F)(F)F)Cc2cnc(-c3ccc(F)cc3)n21	> 6.52
COc1ccc(-c2nnc(C3([C@H]4CCN(C(=O)[C@@](C)(O)C(F)(F)F)C[C@H]4C)CC3)o2)cn1	7.00
C[C@@H]1CN(C(=O)[C@@](C)(O)C(F)(F)F)Cc2cnn(-c3ccc(F)cn3)c21	> 6.52
C[C@@](O)(C(=O)N1CCC(c2ccnn2-c2ccc(OCC(F)(F)F)cc2)CC1)C(F)(F)F	> 6.52

Read the next record carefully.
Please give the measured pIC50 for this compound: "C[C@@](O)(C(=O)N1CCC(c2ccnn2-c2ccccc2F)CC1)C(F)(F)F"
> 6.52
